List of pEC50 values.
Target: F508del-CFTR (Homo sapiens, UniProt P13569, DEL508-508)
Construct: expressed in transfected cells
Sequence (P13569 with tags, fused parts or gaps DEL508-508): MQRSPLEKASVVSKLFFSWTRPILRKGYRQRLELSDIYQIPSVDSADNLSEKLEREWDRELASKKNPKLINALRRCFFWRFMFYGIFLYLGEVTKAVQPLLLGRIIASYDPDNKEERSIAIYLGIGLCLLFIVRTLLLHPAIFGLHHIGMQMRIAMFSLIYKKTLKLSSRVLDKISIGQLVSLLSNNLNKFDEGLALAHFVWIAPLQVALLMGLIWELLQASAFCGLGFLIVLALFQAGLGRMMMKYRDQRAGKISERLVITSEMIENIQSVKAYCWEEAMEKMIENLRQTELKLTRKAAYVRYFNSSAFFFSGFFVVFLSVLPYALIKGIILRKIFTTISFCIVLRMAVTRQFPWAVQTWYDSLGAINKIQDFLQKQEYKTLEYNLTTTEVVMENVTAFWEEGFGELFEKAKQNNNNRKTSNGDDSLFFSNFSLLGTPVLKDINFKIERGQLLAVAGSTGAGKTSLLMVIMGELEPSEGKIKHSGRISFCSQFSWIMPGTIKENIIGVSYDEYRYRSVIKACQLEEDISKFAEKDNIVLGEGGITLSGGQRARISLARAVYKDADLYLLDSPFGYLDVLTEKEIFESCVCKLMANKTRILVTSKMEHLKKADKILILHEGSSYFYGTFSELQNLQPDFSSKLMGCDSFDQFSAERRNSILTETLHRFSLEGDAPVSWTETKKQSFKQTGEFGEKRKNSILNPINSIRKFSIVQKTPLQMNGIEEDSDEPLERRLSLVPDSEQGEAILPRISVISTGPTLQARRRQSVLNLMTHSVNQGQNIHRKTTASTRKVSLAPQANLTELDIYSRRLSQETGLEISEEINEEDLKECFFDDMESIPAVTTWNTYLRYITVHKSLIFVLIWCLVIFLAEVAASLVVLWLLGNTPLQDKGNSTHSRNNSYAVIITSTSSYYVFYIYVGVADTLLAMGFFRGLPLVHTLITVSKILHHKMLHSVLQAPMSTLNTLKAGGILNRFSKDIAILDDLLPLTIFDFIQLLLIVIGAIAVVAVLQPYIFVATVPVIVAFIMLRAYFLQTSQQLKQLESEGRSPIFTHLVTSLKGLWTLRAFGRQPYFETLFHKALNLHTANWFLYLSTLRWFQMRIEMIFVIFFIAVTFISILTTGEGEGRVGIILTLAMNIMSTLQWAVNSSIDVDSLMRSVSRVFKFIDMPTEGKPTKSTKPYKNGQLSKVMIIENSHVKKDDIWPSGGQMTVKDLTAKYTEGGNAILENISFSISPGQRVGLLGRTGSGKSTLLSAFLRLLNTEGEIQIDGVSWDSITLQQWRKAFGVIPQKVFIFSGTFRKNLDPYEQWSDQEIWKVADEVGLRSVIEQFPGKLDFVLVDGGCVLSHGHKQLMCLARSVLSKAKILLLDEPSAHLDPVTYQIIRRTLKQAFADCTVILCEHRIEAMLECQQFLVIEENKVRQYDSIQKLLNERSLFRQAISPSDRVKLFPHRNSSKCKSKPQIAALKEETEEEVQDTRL
Assay: Membrane potential optical (FLIPR) assay for F508del-CFTR modulators in NIH 3T3 cells
Format: cell-based
Details: NIH 3T3 cells expressing F508del; assay A1; read-out: CFTRdF508 Cor 3T3 FLIPR 384 CFTRdF508 MP 3T3 770 EC50
// pEC50 is dimensionless: -log10 of concentration (M)

Here is how some compounds turned out for pEC50.
- compound: "Cc1nn(C)cc1S(=O)(=O)NC(=O)c1ccc(-n2ccc(OCC3(C(F)(F)F)CC3)n2)nc1N1CC(C(C)C)CC1(C)C (racemic)"
  measurement: 6.92
- compound: "Cc1nn(C)cc1S(=O)(=O)NC(=O)c1ccc(-n2ccc(OCC(C)(C)C(F)(F)F)n2)nc1N1CC(CO)CC1(C)C (stereo not drawn)"
  measurement: 6.02
- compound: "Cc1nn(C)cc1S(=O)(=O)NC(=O)c1ccc(-n2ccc(OCC3C4(CC4)C34CC4)n2)nc1N1C[C@@H](C)CC1(C)C"
  measurement: 7.05
- compound: "Cc1nn(C)cc1S(=O)(=O)NC(=O)c1ccc(-n2ccc(OCC(C3CC3)C3CC3)n2)nc1N1C[C@@H](C)CC1(C)C"
  measurement: 6.70
- compound: "Cc1c(S(=O)(=O)NC(=O)c2ccc(-n3ccc(OCC(C)(C)C(F)(F)F)n3)nc2N2C[C@@H](C)CC2(C)C)cnn1C"
  measurement: 6.89

Here is another compound to look at.
Query Cc1nn(C)cc1S(=O)(=O)NC(=O)c1ccc(-n2ccc(OCC(C)(C)C(F)(F)F)n2)nc1N1C[C@@H](C)CC1(C)C on F508del-CFTR (Homo sapiens, UniProt P13569, DEL508-508); pEC50 returned: 7.15

* * *

Target: F508del-CFTR (Homo sapiens, UniProt P13569, DEL508-508)
Construct: expressed in transfected cells
Assay: Membrane potential optical (FLIPR) assay for F508del-CFTR modulators in NIH 3T3 cells
Assay type: cell-based
Details: NIH 3T3 cells expressing F508del; assay A1; read-out: CFTRdF508 Cor 3T3 FLIPR 384 CFTRdF508 MP 3T3 770 EC50
assay.readout: pEC50
// pEC50 is dimensionless: -log10 of concentration (M)

Here is how some compounds turned out for pEC50.
- compound: "Cc1nn(C)cc1S(=O)(=O)NC(=O)c1ccc(-n2ccc(OCC(C)(CO)C(F)(F)F)n2)nc1N1C[C@@H](C)CC1(C)C (stereo partly drawn) [Compound 45]"
  target.desc: "F508del-CFTR (Homo sapiens, UniProt P13569, DEL508-508)"
  pEC50: 6.25
- compound: "Cc1nn(C)c(C)c1S(=O)(=O)NC(=O)c1ccc(-n2ccc(OCC3(C(F)(F)F)CC3)n2)nc1N1C[C@@H](C)CC1(C)C [Compound 16]"
  target.desc: "F508del-CFTR (Homo sapiens, UniProt P13569, DEL508-508)"
  pEC50: 6.40
- compound: "C[C@@H]1CN(c2nc(-n3ccc(OCC4(C(F)(F)F)CC4)n3)ccc2C(=O)NS(=O)(=O)c2cnn(C(C)(C)C)c2)C(C)(C)C1 [Compound 8]"
  target.desc: "F508del-CFTR (Homo sapiens, UniProt P13569, DEL508-508)"
  pEC50: 6.40
- compound: "C[C@@H]1CN(c2nc(-n3ccc(OC4CC4)n3)ccc2C(=O)NS(=O)(=O)c2cnn(C)c2)C(C)(C)C1 [Compound 22]"
  target.desc: "F508del-CFTR (Homo sapiens, UniProt P13569, DEL508-508)"
  pEC50: 5.68
- compound: "Cc1nn(C)cc1S(=O)(=O)NC(=O)c1ccc(-n2ccc(OC3CC3C(F)(F)F)n2)nc1N1C[C@@H](C)CC1(C)C (stereo partly drawn) [Compound 34]"
  target.desc: "F508del-CFTR (Homo sapiens, UniProt P13569, DEL508-508)"
  pEC50: 6.21
- compound: "Cc1nn(C)cc1S(=O)(=O)NC(=O)c1ccc(-n2ccc(OCC3(C(F)(F)F)CC3)n2)nc1N1C[C@@H](C(C)C)CC1(C)C (single isomer, unassigned) [Compound 46]"
  target.desc: "F508del-CFTR (Homo sapiens, UniProt P13569, DEL508-508)"
  pEC50: 6.41
- compound: "C[C@@H]1CN(c2nc(-n3ccc(OCC(C)(C)C)n3)ccc2C(=O)NS(=O)(=O)c2ccccc2)C(C)(C)C1 [C, reference compound]"
  target.desc: "F508del-CFTR (Homo sapiens, UniProt P13569, DEL508-508)"
  pEC50: 6.92
- compound: "Cc1n[nH]cc1S(=O)(=O)NC(=O)c1ccc(-n2ccc(OCC(C)(C)C(F)(F)F)n2)nc1N1C[C@@H](C)CC1(C)C [Compound 31]"
  target.desc: "F508del-CFTR (Homo sapiens, UniProt P13569, DEL508-508)"
  pEC50: 6.39
- compound: "Cc1nn(C)cc1S(=O)(=O)NC(=O)c1ccc(-n2ccc(OCC(C)(C)C(F)(F)F)n2)nc1N1C[C@H](C)CC1(C)C [Compound 37]"
  target.desc: "F508del-CFTR (Homo sapiens, UniProt P13569, DEL508-508)"
  pEC50: 6.54
- compound: "Cc1c(S(=O)(=O)NC(=O)c2ccc(-n3ccc(OCC4(C(F)(F)F)CC4)n3)nc2N2C[C@@H](C)CC2(C)C)cnn1C [Compound 9]"
  target.desc: "F508del-CFTR (Homo sapiens, UniProt P13569, DEL508-508)"
  pEC50: 6.38

Looking up C[C@@H]1CN(c2nc(-n3ccc(OCC4(C(F)(F)F)CC4)n3)ccc2C(=O)NS(=O)(=O)c2cn[nH]c2)C(C)(C)C1 [Compound 5] , I see its pEC50 listed as 5.89

Looking up Cc1nn(C)cc1S(=O)(=O)NC(=O)c1ccc(-n2ccc(OCC3(C(F)(F)F)CC3)n2)nc1N1C[C@@H](C(C)C)CC1(C)C (single isomer, unassigned) [Compound 47] , I see its pEC50 listed as 7.22
